Experiment: pKa of the oil-soluble basic compound by alkalimetry
Type: physicochemical
Settings: ethanol/water solution, alkalimetry at 25° C.
Experimental endpoint: pKa

CC1(C)CC(OC(=O)CCCCCCCCC(=O)OC2CC(C)(C)NC(C)(C)C2)CC(C)(C)N1 [Compd.-3]	8.7
CCCCCCCCCCCCCCOC(=O)CCN1CCN(CCC(=O)OCCCCCCCCCCCCCC)CC1 [OC-4]	6.2

[P] CCCCCCCCCCCCCCOc1ccc(N2CCCCC2)cc1 [Compd.-2]
[Q] CCCCCCCCCCCCN1CCN(CCCCCCCCCCCC)CC1 [OC-6]
Pick the one with the larger pKa: P vs Q Lab log: write the label of the selected item as the result.
Q
